System: ACE2 (Homo sapiens, UniProt Q9BYF1)
Sequence (Q9BYF1 18-805, species assumed): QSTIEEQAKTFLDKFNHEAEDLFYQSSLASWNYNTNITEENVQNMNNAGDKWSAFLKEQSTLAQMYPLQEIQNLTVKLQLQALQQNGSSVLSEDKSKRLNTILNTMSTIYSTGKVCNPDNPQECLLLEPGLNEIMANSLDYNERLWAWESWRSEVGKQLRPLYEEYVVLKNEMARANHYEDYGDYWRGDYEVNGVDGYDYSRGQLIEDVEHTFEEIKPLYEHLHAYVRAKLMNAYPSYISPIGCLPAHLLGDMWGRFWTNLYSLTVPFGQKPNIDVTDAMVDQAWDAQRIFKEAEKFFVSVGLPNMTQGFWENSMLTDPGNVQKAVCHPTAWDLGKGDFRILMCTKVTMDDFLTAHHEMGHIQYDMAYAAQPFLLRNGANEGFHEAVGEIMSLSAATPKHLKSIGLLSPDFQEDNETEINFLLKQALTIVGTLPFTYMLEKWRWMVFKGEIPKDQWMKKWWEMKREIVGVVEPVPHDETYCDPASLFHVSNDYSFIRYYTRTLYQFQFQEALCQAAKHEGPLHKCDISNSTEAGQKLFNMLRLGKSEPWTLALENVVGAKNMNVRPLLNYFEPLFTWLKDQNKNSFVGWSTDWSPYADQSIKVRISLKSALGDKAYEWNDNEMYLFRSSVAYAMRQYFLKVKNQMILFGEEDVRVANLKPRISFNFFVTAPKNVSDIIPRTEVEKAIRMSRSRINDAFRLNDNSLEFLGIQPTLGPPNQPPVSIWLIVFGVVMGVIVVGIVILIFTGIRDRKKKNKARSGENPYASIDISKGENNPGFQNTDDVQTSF
Protocol summary: ACE2 quenched fluorescence substrate (QFS) inhibition assay
Format: biochemical
Conditions used: read-out: ACE2 inhibition of terminally modified IHPF analogs, 100 μM (Table 3); peptide 100 μM; 50 uM QFS, 1 M NaCl, 100 mM Tris-Cl pH 6.5, 37 °C, 1 h
Description: Angiotensin converting enzyme 2 QFS assays were performed for 1 h in 50 uM QFS, 1 M NaCl, 100 mM Tris-Cl, pH 6.5 at 37∘C on a BMG LabTechnologies (Offenburg, Germany), FLUOStar Optima in a 96 well-plate. Subsequent data analysis determined the inhibition of native AngII, its analogs and C-terminal peptides compared to the ACE2 QFS substrate [MCA-APK(DNP)-OH, [Vickers et al., 2002]]. […]
Peptide text beside a SMILES is read from it.
Kindly state inhibition at 100 µM for each of the entries shown.
Give just the number in %; leave the unit off.

Short answer please: inhibition at 100 µM, ACE2 (Homo sapiens, UniProt Q9BYF1), entry NC(=O)[C@H](Cc1ccccc1)NC(=O)[C@@H]1CCCN1C(=O)[C@H](Cc1c[nH]cn1)NC(=O)[C@@H]1CCCN1 [C-amidated PHPF] (H-PHPF-NH2)
1

Check CC(=O)N1CCC[C@H]1C(=O)N[C@@H](Cc1c[nH]cn1)C(=O)N1CCC[C@H]1C(=O)N[C@@H](Cc1ccccc1)C(N)=O [N-acetylated/C-amidated PHPF] (Ac-PHPF-NH2) too.
8

Note, next up: CC(C)[C@H](NC(=O)[C@H](Cc1c[nH]cn1)NC(=O)[C@@H]1CCCN1)C(=O)N[C@@H](Cc1ccccc1)C(N)=O [C-amidated PHVF] (H-PHVF-NH2)
12

Item: CC(=O)N1CCC[C@H]1C(=O)N[C@@H](Cc1c[nH]cn1)C(=O)N1CCC[C@H]1C(=O)N[C@@H](Cc1ccccc1)C(=O)O [N-acetylated PHPF] (Ac-PHPF-OH)
57

For CC(=O)N[C@H](C(=O)N[C@@H](Cc1c[nH]cn1)C(=O)N[C@H](C(=O)N[C@@H](Cc1ccccc1)C(N)=O)C(C)C)C(C)C [N-acetylated/C-amidated VHVF] (Ac-VHVF-NH2) then?
21
